Below is a list of entries, each paired with its recorded TGI value.
test system: A498 renal; test: NCI tumour cell line growth inhibition, 48 h
Where a SMILES comes first, the peptide text is derived from it. [ ]: non-standard residue; d: D form. β3hI = CC[CH](C)[CH](N)CC(=O)O

{"columns": ["compound", "TGI"],
 "data": [
  ["CCCCCCCC/C=C\\CCCCCCCC(=O)NCCN(CCN)C(=O)CCCCCCC/C=C\\CCCCCCCC", "> 100 µM"],
  ["Cc1ccc(Cl)c(NC(=O)C(=O)C(C(=O)c2ccncc2)C2OC(=O)c3ccccc32)c1 (centres undefined)", "> 100 µM"],
  ["CC#C[I+]c1ccccc1", "> 100 µM"],
  ["O=S(CCCl)c1c2ccccc2nc2ccccc12 (centres undefined)", "> 100 µM"],
  ["CC(C)[C@](O)(C(=O)OCC1CC[N+]2([O-])CC[C@@H](O)C12)[C@H](C)O (some centres undefined)", "> 59.4 µM"],
  ["CCC(C)C(CC(=O)N1CCCC1C(=O)NC(C(=O)NC(C(=O)NCC(=O)NC(CC(N)=O)C(=O)NC(C(=O)NC(C(=O)NC(CCCCN)C(N)=O)C(C)CC)C(C)CC)C(C)C)C(C)CC)NC(=O)C(N)C(C)CC (stereo not drawn) (H-I[β3hI]PIVGNIIK-NH2; configuration not given here)", "> 50 µM"],
  ["c1cncc(-c2ncc3cccnc3n2)c1", "> 100 µM"],
  ["COc1cccc(N2C(=O)CSC2c2cc(OC)c(OC)c(OC)c2)c1 (centres undefined)", "> 100 µM"],
  ["CCOC(=O)c1c(C(F)(F)F)n([O-])c2ccc(OC)cc2[n+]1=O", "33.7 µM"]
]}

====

tested on: SNB-75 CNS; experiment: NCI tumour cell line growth inhibition, 48 h; in the data active = GI50 below about 0.43 µM; inactive = the rest
Outcome codes: 1.0 = active, 0.0 = inactive

{"columns": ["compoundString", "discreteLabel"],
 "data": [
  ["Cc1[nH]c(=O)[nH]c(=O)c1CO", 0.0],
  ["C=C(C)[C@@H]1CC[C@]2(C)[C@H](CC[C@@H]3[C@H]4[C@H]5OC[C@@]4(CCC5(C)C)CC[C@]32C)[C@@]1(C)CCCN", 0.0],
  ["NS(=O)(=O)c1ccc(CCN=C=S)cc1", 0.0],
  ["COC1=CC(c2ccc[nH]2)=N/C1=C\\c1[nH]c(C)c(C(=O)CCCCC(=O)Nc2ccccc2)c1C", 0.0],
  ["CCOC(=O)c1c(C(F)(F)F)n([O-])c2ccc(OC)cc2[n+]1=O", 0.0],
  ["Nc1c(C(=O)Nc2ccccc2Cl)sc2nc3c(cc12)CCCCCC3", 0.0],
  ["CCC(=C/[C@H](C)C/C=C/C(C)=C/[C@@H](C)C(=O)[C@@H](C)[C@H](O)[C@@H](C)CC)/C=C/[C@H]1OC(=O)C=C[C@H]1C", 1.0],
  ["COC(=O)CCC/C=C\\C[C@H]1C=CC(=O)/C1=C/C[C@@H](O)C/C=C\\CC(F)(F)F", 0.0],
  ["Cc1ccc(C)c(-c2csc(Nc3ccc(C)c(C)c3)n2)c1", 0.0],
  ["CCOC(=O)c1sc(Nc2ccc(Cl)cc2)nc1C", 0.0]
]}

====

tested on: OVCAR-3 ovarian; test: NCI tumour cell line growth inhibition, 48 h
observable: GI50

{"columns": ["molecule", "measValue"],
 "data": [
  ["C=C(C)[C@@H]1CC[C@]2(C)[C@H](CC[C@@H]3[C@H]4[C@H]5OC[C@@]4(CCC5(C)C)CC[C@]32C)[C@@]1(C)CCCN", "1.68 µM"],
  ["CCn1cnc2c(Nc3cccc(Cl)c3)nc(N[C@@H]3CCCC[C@@H]3N)nc21", "1.18 µM"],
  ["C[C@H]1[C@H](C)CC[C@]2(C(=O)O)CC[C@]3(C)C(=CC[C@@H]4[C@@]5(C)C/C(=C/c6ccco6)C(=O)C(C)(C)[C@@H]5CC[C@]43C)[C@H]12", "3.44 µM"],
  ["CCC(C)C(NC(=O)C1CCCN1C(=O)C(NC(=O)C(C)N)C(C)C)C(N)=O (stereo not given)", "> 100 µM"],
  ["CCOC(=O)c1c(C(F)(F)F)n([O-])c2ccc(OC)cc2[n+]1=O", "4.31 µM"]
]}

====

test system: SNB-19 CNS; assay: NCI tumour cell line growth inhibition, 48 h
observable: TGI

{"columns": ["molecule", "measValue"],
 "data": [
  ["CC(C)NCC(O)c1ccc(OCc2ccccc2)c(OCc2ccccc2)c1-c1ccccc1 (configuration not stated)", "4.07 µM"],
  ["CCCCCCCCCCCCCCCCCCOCC(CO[P+](=O)O)OCCCCCCCCCCCCCCCCCC (configuration not stated)", "> 50 µM"],
  ["CCn1cnc2c(Nc3cccc(Cl)c3)nc(N[C@@H]3CCCC[C@@H]3N)nc21", "8.17 µM"],
  ["C[C@@H]1C=C2C(=O)O[C@@H]3CC[C@H](C1)[C@]23O", "93.8 µM"],
  ["CCC(C)C(NC(=O)C1CCCN1C(=O)C(NC(=O)C(C)N)C(C)C)C(N)=O (configuration not stated)", "> 100 µM"],
  ["COc1cc2c(c3c1c(=O)c1ccccc1n3C)C=CC1(CCCCC1)O2", "> 10 µM"],
  ["Cc1cc(C)c2c(=O)n(CN3CCC(O)(c4ccccc4)CC3)sc2n1", "> 100 µM"],
  ["CCOC(=O)c1cn(Cc2ccccc2)c(=O)n1Cc1ccccc1", "> 100 µM"],
  ["CC(=O)O[C@H]1C(=O)[C@@]2(C)C(C(OC(=O)c3ccccc3)[C@]3(O)CC(OC(=O)C(O)C(NC(=O)c4ccc(C)cc4)c4ccccc4)C(C)=C1C3(C)C)[C@]1(OC(C)=O)CO[C@@H]1C[C@@H]2O (some centres not stated)", "16.7 µM"],
  ["OCCN(CCO)c1ccc2c(c1)Cc1ccccc1-2", "> 100 µM"],
  ["Cc1[nH]c(=O)[nH]c(=O)c1CO", "> 100 µM"],
  ["O=C(CCc1cccc(O)c1)NCCc1ccc(O)cc1", "> 100 µM"],
  ["Nc1c(C(=O)Nc2ccccc2Cl)sc2nc3c(cc12)CCCCCC3", "20.5 µM"],
  ["S=C(S)N1CCN(c2ccc(Cl)c(Cl)c2)CC1", "> 100 µM"],
  ["COc1ccc(/C(C)=N/OC(=O)c2c(-c3ccccc3Cl)noc2C)cc1CN1CCOCC1", "46.2 µM"],
  ["CCN(CC)C(=O)COc1ccc(Br)cc1Br", "> 100 µM"],
  ["CC(=O)Oc1cc2c(cc1OC(C)=O)[C@H]1CC[C@]3(C)[C@@H](OC(C)=O)CC[C@H]3[C@@H]1CC2", "21.7 µM"],
  ["O=C1CC2(CCNCC2)C(=O)N1N1CCCC1", "> 100 µM"],
  ["COc1cc(-c2cc(-c3nc4ccc(Cl)cc4[nH]3)[nH]n2)cc(OC)c1OC", "20.4 µM"],
  ["N#Cc1ccnc(N2C(=O)CC[C@H]2C(=O)N(c2cncc(F)c2)[C@H](C(=O)NC2CC(F)(F)C2)c2ccccc2Cl)c1", "> 100 µM"],
  ["COP1(=O)Oc2ccccc2C(=O)C(C(F)(F)F)(C(F)(F)F)O1 (configuration not stated)", "> 100 µM"],
  ["CCC(=C/[C@H](C)C/C=C/C(C)=C/[C@@H](C)C(=O)[C@@H](C)[C@H](O)[C@@H](C)CC)/C=C/[C@H]1OC(=O)C=C[C@H]1C", "1.29 µM"],
  ["CCOC(=O)c1sc(=S)c2c(C(=O)OCC)c(C(=O)OCC)sc2c1C(=O)OCC", "> 100 µM"],
  ["CCCc1nc2c(C)cc(-c3nc4ccccc4n3C)cc2n1Cc1ccc(-c2ccccc2C(=O)O)cc1", "> 100 µM"],
  ["COc1cc([N+](=O)[O-])ccc1NC1=CC(=O)CCC1", "> 100 µM"],
  ["O=[N+]([O-])c1cc(-[n+]2cc([O-])on2)ccc1F", "21.3 µM"],
  ["O=C(Nc1nc2ncn(CC(COc3ccccc3)OC(=O)c3ccccc3)c2c(=O)[nH]1)c1ccccc1 (configuration not stated)", "> 100 µM"],
  ["CCOP(=O)(C=C=C(C)C)OCC", "> 100 µM"],
  ["Cc1ccc(C)c(-c2csc(Nc3ccc(C)c(C)c3)n2)c1", "> 100 µM"],
  ["COc1cccc(/C=C2\\CCCCCC2=O)c1", "> 100 µM"],
  ["O=C(O)CC/C(=N\\Nc1nsc2ccccc12)c1ccc(Cl)cc1", "> 100 µM"],
  ["N#CC1=C(N)OC(c2ccc([N+](=O)[O-])cc2)C1(C#N)C#N (configuration not stated)", "> 53.2 µM"],
  ["COc1ccc(O)c(C=NCCCN=Cc2cc(OC)ccc2O)c1", "> 100 µM"],
  ["C=C(C)[C@@H]1CC[C@]2(C)[C@H](CC[C@@H]3[C@H]4[C@H]5OC[C@@]4(CCC5(C)C)CC[C@]32C)[C@@]1(C)CCCN", "3.24 µM"],
  ["O=[N+]([O-])c1nccn1COCCF", "> 100 µM"],
  ["c1ccc2c(c1)Nc1nc3nonc3nc1N2", "> 100 µM"],
  ["CC(=O)N=c1ccc2nc3c(cc(N)c4ccccc43)oc-2c1", "3.46 µM"],
  ["O=S(CCCl)c1c2ccccc2nc2ccccc12 (configuration not stated)", "> 100 µM"],
  ["c1ccc(CN(Cn2cccn2)Cn2cccn2)nc1", "> 100 µM"],
  ["CC(C)OP(=O)(OC(C)C)C(=Nc1ccccc1)NNc1ccc([N+](=O)[O-])cc1", "> 100 µM"],
  ["CCOC(=O)CCC(NC(=O)c1ccc(OCc2nc3ccccc3n3cccc23)cc1)C(=O)OCC (configuration not stated)", "> 100 µM"],
  ["COc1ccc([N+](=O)[O-])c(S(=O)(=O)c2ccc(Cl)cc2)n1", "29.2 µM"]
]}
